The measurements presented in this section are drawn from the nanobody polyreactivity screen of Harvey et al. (2022).

- test_details: yeast display, Sf9 membrane polyspecificity reagent, FACS + sequencing; frameworks hold sequencing errors
property: polyreactivity (PSR sort gate)

residue_sequence	meas_value
QVQLVESGVGLVQAGGSLRLSCAASGSTFDANAMGWYIQAPGKERELVAAITSNGGSTYYADSVKGRFTISRDNAKNTVYLQMNSLKPEDTAVYYCASEQHTVQDYDYWGQGTQVTVSS	low polyreactivity
QVQLVESGGGLVQAGGILRLSCAASGRIKPRNAMGWYRQAPGKERELVAAISWDGGSTYYADSVKGRFTISRDNAKNTVYLQINSLKPVDTAVYYCNVYVSAGEEDEYWGQGTQVTVSS	low polyreactivity
QVQLVESGGGLVQAGGSLRLSCAASGSTFLYYAMGWYRQAPGKERELVAVISWSGVSTYYADSVKGRFTISRDNAKNTVYLQMNSLTPEDTAVYYCNTGNHYIRTYGYWGQGTQVTVSS	low polyreactivity
QVQLVESGGGLVQAGGSLRLSCAASGFTFFYYVMGWYRQAPGKERELVAAITRGGSTYYADSVKGRFTISRDNAKNTVYLQMNSLKPEDTAVYYCNVAEPGYYYGYGDYGMDYWGQGTQVTVSS	high polyreactivity
HVQLVESGGGLVQAGGSLRLSCAASGRTFPYYAMGWYRQAPGKERELVAGITSNAGSTYYADSVKGRFTISRDNAKNTVYLLMNSLKPEDTAVYYCAKTKAGRWTTFKFGYWGQGTQVTVSS	high polyreactivity
QVQLVESGGGLVQAGGSLRLSCAASGSTFRFYAMGWYRQAPGKERELVAVIRSTGSTYYADSVKGRFTISRDNAKNTVYLQMNSLKPEDTAVYYCAAQNAWWSNGRSYDYWGQGTQVTVSS	low polyreactivity
QVQLVESGGGLVQAGGSLRLSCAASGSIFGVYAMGWYRQAPGKERGLVARISGSSGSTRYADSVKGRFTISRDNAKNTVYLQMNSLKPEDTAVYYCAARAIFRQGDRIYDSWGQGTQVTVSS	high polyreactivity
QVQLVESGGGLVQAGGSLRLSCAASGITLNRNAMGWYRQAPGKERELVARISRRGGTTYYADSVKGRFSISRDNAKNTVYLQMNSLKPEDTAVYYCNAGPYGGNPFDYWGQGTQVTVSS	high polyreactivity
QVQLVESGGGLVQAGGSLRLSCAASGSIFYYYAMGWYRQAPGKVRELVASISSGGRTYYADSVKGRFTISRDNAENTLYLQLNSLKPEDSAVYYCAVEVWWWEGDYDYWGLGTQVTVSS	high polyreactivity
QVQLVESGGGLVQAGGSLRLSCAASGRTFSYYTMGWYRQAPGKERELVAAITSSGGSTYYADSVKGRFTISRDNAKNTVYLQMNSLKPEDTAVYYCAVLNYWAMDYWGQGTQVTVSS	high polyreactivity
QVQLVESGGGLVQAGGSLRLSCAASGSISGYYTMGWYRQAPGKERELVAAISRSGVRTYYADSVKGRFTISRDNAMNTVYLQMNSLKPEDTAVYYCARKDSSLGDYWGQGTQVTVSS	high polyreactivity
